experiment: total protein half-life in vivo (active degradation + dilution); higher = more stable protein; settings: E. coli NCM3722 delta-hslV; growth: N-lim chemostat; doubling time 6 h
Documented total protein half-life in vivo across a set of sequences
The response must be a number in h with no trailing unit.

Solved entries:
Please fill in: total protein half-life in vivo reported for MEYQHWLREAISQLQASESPRRDAEILLEHVTGRGRTFILAFGETQLTDEQCQQLDALLTRRRDGEPIAHLTGVREFWSLPLFVSPATLIPRPDTECLVEQALARLPEQPCRILDLGTGTGAIALALASERPDCEIIAVDRMPDAVSLAQRNAQHLAIKNIHILQSDWFSALAGQQFAMIVSNPPYIDEQDPHLQQGDVRFEPLTALVAADSGMADIVHIIEQSRNALVSGGFLLLEHGWQQGEAVRQAFILAGYHDVETCRDYGDNERVTLGRYYQ [P0ACC1] = 3.35

GET /value?item= `MADITLISGSTLGGAEYVAEHLAEKLEEAGFTTETLHGPLLEDLPASGIWLVISSTHGAGDIPDNLSPFYEALQEQKPDLSAVRFGAIGIGSREYDTFCGAIDKLEAELKNSGAKQTGETLKINILDHDIPEDPAEEWLGSWVNLLK` &field=total protein half-life in vivo returns 2.93

Briefly, total protein half-life in vivo measured for `MPVRASIEPLTWENAFFGVNSAIVRITSEAPLLTPDALAPWSRVQAKIAASNTGELDALQQLGFSLVEGEVDLALPVNNASDSGAVVAQETDIPALRQLASAAFAQSRFRAPWYAPDASSRFYAQWIENAVRGTFDHQCLILRAASGDIRGYVSLRELNATDARIGLLAGRGAGAELMQTALNWAYARGKTTLRVATQMGNTAALKRYIQSGANVESTAYWLYR` : 5.03

Briefly, total protein half-life in vivo measured for MSFFISDAVAATGAPAQGSPMSLILMLVVFGLIFYFMILRPQQKRTKEHKKLMDSIAKGDEVLTNGGLVGRVTKVAENGYIAIALNDTTEVVIKRDFVAAVLPKGTMKAL [P0ADZ7] : 5.78

Attention now turns to another entry.
For record MPRANEIKKGMVLNYNGKLLLVKDIDIQSPTARGAATLYKMRFSDVRTGLKVEERFKGDDIVDTVTLTRRYVDFSYVDGNEYVFMDKEDYTPYTFTKDQIEEELLFMPEGGMPDMQVLTWDGQLLALELPQTVDLEIVETAPGIKGASASARNKPATLSTGLVIQVPEYLSPGEKIRIHIEERRYMGRAD [P0A6N8] the listed total protein half-life in vivo is 4.21

---

experiment: total protein half-life in vivo (active degradation + dilution); higher = more stable protein; conditions: wild type E. coli NCM3722; growth: C-lim chemostat; doubling time 12 h
measured property: total protein half-life in vivo (h)
Entry rule: numbers only, all in h.

As a guide, the following entries are already answered.
Reported total protein half-life in vivo for `MSLSRTQIVNWLTRCGDIFSTESEYLTGLDREIGDADHGLNMNRGFSKVVEKLPAIADKDIGFILKNTGMTLLSSVGGASGPLFGTFFIRAAQATQARQSLTLEELYQMFRDGADGVISRGKAEPGDKTMCDVWVPVVESLRQSSEQNLSVPVALEAASSIAESAAQSTITMQARKGRASYLGERSIGHQDPGATSVMFMMQMLALAAKE` was 9.74

Short answer for `MENIMNNPVIGVVMCRNRLKGHATQTLQEKYLNAIIHAGGLPIALPHALAEPSLLEQLLPKLDGIYLPGSPSNVQPHLYGENGDEPDADPGRDLLSMAIINAALERRIPIFAICRGLQELVVATGGSLHRKLCEQPELLEHREDPELPVEQQYAPSHEVQVEEGGLLSALLPECSNFWVNSLHGQGAKVVSPRLRVEARSPDGLVEAVSVINHPFALGVQWHPEWNSSEYALSRILFEGFITACQHHIAEKQRL` : total protein half-life in vivo was 10.5

Pending sequence:
Query MSNLTGTDKSVILLMTIGEDRAAEVFKHLSQREVQTLSAAMANVTQISNKQLTDVLAEFEQEAEQFAALNINANDYLRSVLVKALGEERAASLLEDILETRDTASGIETLNFMEPQSAADLIRDEHPQIIATILVHLKRAQAADILALFDERLRHDVMLRIATFGGVQPAALAELTEVLNGLLDGQNLKRSKMGGVRTAAEIINLMKTQQEEAVITAVREFDGELAQKIIDEMFLFENLVDVDDRSIQRLLQEVDSESLLIALKGAEQPLREKFLRNMSQRAADILRDDLANRGPVRLSQVENEQKAILLIVRRLAETGEMVIGSGEDTYV [P0ABZ1] yields total protein half-life in vivo of 5.85

---

assay: total protein half-life in vivo (active degradation + dilution); higher = more stable protein; settings: wild type E. coli NCM3722; growth: C-lim chemostat; doubling time 12 h
# binarize total protein half-life in vivo: threshold 7 h inclusive, high side 1 (yes), low side 0 (no)

Record excerpt, results attached:
Q: # bool: total protein half-life in vivo of `MSLPMLQVALDNQTMDSAYETTRLIAEEVDIIEVGTILCVGEGVRAVRDLKALYPHKIVLADAKIADAGKILSRMCFEANADWVTVICCADINTAKGALDVAKEFNGDVQIELTGYWTWEQAQQWRDAGIGQVVYHRSRDAQAAGVAWGEADITAIKRLSDMGFKVTVTGGLALEDLPLFKGIPIHVFIAGRSIRDAASPVEAARQFKRSIAELWG` >= 7 h
Result: 0 (no)

Q: Does total protein half-life in vivo meet or surpass 7 h for `MSKIRVLSVDDSALMRQIMTEIINSHSDMEMVATAPDPLVARDLIKKFNPDVLTLDVEMPRMDGLDFLEKLMRLRPMPVVMVSSLTGKGSEVTLRALELGAIDFVTKPQLGIREGMLAYNEMIAEKVRTAAKASLAAHKPLSAPTTLKAGPLLSSEKLIAIGASTGGTEAIRHVLQPLPLSSPALLITQHMPPGFTRSFADRLNKLCQIGVKEAEDGERVLPGHAYIAPGDRHMELSRSGANYQIKIHDGPAVNRHRPSVDVLFHSVAKQAGRNAVGVILTGMGNDGAAGMLAMRQAGAWTLAQNEASCVVFGMPREAINMGGVCEVVDLSQVSQQMLAKISAGQAIRI` ?
Result: 0 (no)

Next:
Q: Record MKSLQALFGGTFDPVHYGHLKPVETLANLIGLTRVTIIPNNVPPHRPQPEANSVQRKHMLELAIADKPLFTLDERELKRNAPSYTAQTLKEWRQEQGPDVPLAFIIGQDSLLTFPTWYEYETILDNAHLIVCRRPGYPLEMAQPQYQQWLEDHLTHNPEDLHLQPAGKIYLAETPWFNISATIIRERLQNGESCEDLLPEPVLTYINQQGLYR [P0A752] ; criterion: total protein half-life in vivo no lower than 7 h. Met?
Result: 1 (yes)

Q: Dear colleague, could you confirm whether `MQRETVWLVEDEQGIADTLVYMLQQEGFAVEVFERGLPVLDKARKQVPDVMILDVGLPDISGFELCRQLLALHPALPVLFLTARSEEVDRLLGLEIGADDYVAKPFSPREVCARVRTLLRRVKKFSTPSPVIRIGHFELNEPAAQISWFDTPLALTRYEFLLLKTLLKSPGRVWSRQQLMDSVWEDAQDTYDRTVDTHIKTLRAKLRAINPDLSPINTHRGMGYSLRGL` has total protein half-life in vivo at or above 7 h?
Result: 1 (yes)

---

assay: total protein half-life in vivo (active degradation + dilution); higher = more stable protein; conditions: E. coli NCM3722 delta-clpP delta-lon delta-hslV; growth: N-lim chemostat; doubling time 6 h
Would you please tag the item yes when its total protein half-life in vivo is 5 h or above, and no when it is below?

Q: Given MKVGFIGLGIMGKPMSKNLLKAGYSLVVADRNPEAIADVIAAGAETASTAKAIAEQCDVIITMLPNSPHVKEVALGENGIIEGAKPGTVLIDMSSIAPLASREISEALKAKGIDMLDAPVSGGEPKAIDGTLSVMVGGDKAIFDKYYDLMKAMAGSVVHTGEIGAGNVTKLANQVIVALNIAAMSEALTLATKAGVNPDLVYQAIRGGLAGSTVLDAKAPMVMDRNFKPGFRIDLHIKDLANALDTSHGVGAQLPLTAAVMEMMQALRADGLGTADHSALACYYEKLAKVEVTR [P0ABQ2] , state whether its total protein half-life in vivo is at least 5 h.
Result: no

Q: total protein half-life in vivo >= 5 h for MAEVTQLKRYDARPINWGKWFLIGIGMLVSAFILLVPMIYIFVQAFSKGLMPVLQNLADPDMLHAIWLTVMIALIAVPVNLVFGILLAWLVTRFNFPGRQLLLTLLDIPFAVSPVVAGLVYLLFYGSNGPLGGWLDEHNLQIMFSWPGMVLVTIFVTCPFVVRELVPVMLSQGSQEDEAAILLGASGWQMFRRVTLPNIRWALLYGVVLTNARAIGEFGAVSVVSGSIRGETLSLPLQIELLEQDYNTVGSFTAAALLTLMAIITLFLKSMLQWRLENQEKRAQQEEHHEH [P0AEB0] ?
Result: no

Q: Is total protein half-life in vivo at least 5 h? Consider MSALFLAIPLTIFVLFVLPIWLWLHYSNRSGRSELSQSEQQRLAQLADEAKRMRERIQALESILDAEHPNWRDR [P0AFM9]
Result: yes

More entries:
Q: Check if total protein half-life in vivo >= 5 h (inclusive). Item: MQLNITGNNVEITEALREFVTAKFAKLEQYFDRINQVYVVLKVEKVTHTSDATLHVNGGEIHASAEGQDMYAAIDGLIDKLARQLTKHKDKLKQH [P0AFX0]
Result: no

Q: # check: total protein half-life in vivo of MRIVTAAVMASTLAVSSLSHAAEVGSGDNWHPGEELTQRSTQSHMFDGISLTEHQRQQMRDLMQQARHEQPPVNVSELETMHRLVTAENFDENAVRAQAEKMANEQIARQVEMAKVRNQMYRLLTPEQQAVLNEKHQQRMEQLRDVTQWQKSSSLKLLSSSNSRSQ [P0AE85] is greater than or equal to 5 h
Result: no

Q: Record MPAENIVEVHHLKKSVGQGEHELSILTGVELVVKRGETIALVGESGSGKSTLLAILAGLDDGSSGEVSLVGQPLHNMDEEARAKLRAKHVGFVFQSFMLIPTLNALENVELPALLRGESSAESRNGAKALLEQLGLGKRLDHLPAQLSGGEQQRVALARAFNGRPDVLFADEPTGNLDRQTGDKIADLLFSLNREHGTTLIMVTHDLQLAARCDRCLRLVNGQLQEEA [P0A9T8] ; criterion: total protein half-life in vivo no lower than 5 h. Met?
Result: yes
